Please provide measured GI50 for the entries that follow.
Test system: KM12
assay.protocol: NCI tumour cell line growth inhibition, 48 h
Active and inactive are the calls of the source. Rule as the data show it: active = GI50 up to about 1.1 µM and inactive = higher. Where a SMILES comes first, the peptide text is derived from it. The star is where a group is joined. OSu = O=C1CCC(=O)N1O*; OBn = c1ccc(CO*)cc1; Bn = c1ccc(C*)cc1

Which measured GI50 value corresponds to `O=C(C[n+]1ccccc1)NNC(=O)/C(=C/c1ccc2c(c1)OCO2)NC(=O)c1ccccc1` ?
35.2 µM (inactive)

Which GI50 reading was recorded for the molecule `Cc1nnc(N/N=C2\C(=O)Nc3ccccc32)n1N` ?
> 100 µM (inactive)

GI50 lookup needed for `CCOC(=O)c1c(NC(=S)NCc2ccccc2)sc2c1CCN(C)C2` , thanks.
24.4 µM (inactive)

Any idea what its GI50 is? The molecule is CC1=COC2=C(C)C(=O)C(=O)c3c(C)ccc1c32 [MANSONONE F]
3.93 µM (inactive)

Fill in: GI50 of `CCn1c(SCC(=O)N/N=C2\SCC(=O)N2c2ccc(C)cc2)nc2ccccc2c1=O` is ___
19.4 µM (inactive)

Quick one: GI50 of O=C1CSC(c2ccc([N+](=O)[O-])cc2)N1c1ccc(-n2c(-c3ccccc3)nc3ccccc3c2=O)cc1 (configuration not stated) ?
31.7 µM (inactive)

Need GI50 of COc1ccc2nc3c(c(N)c2c1)C1CCC3C1(C)C (configuration not stated) , thanks.
42.9 µM (inactive)

I am curious: what GI50 value has been reported for O=C(Nc1ccc([N+](=O)[O-])cc1)C1C(=O)C(=O)N(c2ccc([N+](=O)[O-])cc2)C1=O (configuration not stated) ?
> 100 µM (inactive)

Need GI50 of `CC1=NCCN=C(C)C1/N=N/c1ccc2[nH]c(C)nc2c1` , thanks.
11.7 µM (inactive)

Record request: GI50 value, item `Cc1ccc(C(=O)N2CCCCC2)cc1/N=N/N(C)C`
> 100 µM (inactive)

If you can, please state the reported GI50 value of `NC(=S)SC1=NC(=O)C2(NN1)c1ccccc1-c1ccccc12` .
> 10 µM (inactive)

Can you share its GI50? I mean this molecule: COc1cc(Cn2c3ccccc3c3cc(C)c4c(c32)C=CC(C)(CCC=C(C)C)O4)cc2c1[nH]c1ccccc12 (configuration not stated) [CHRESTFOLINE C]
> 100 µM (inactive)

Which GI50 reading was recorded for the molecule CC1(c2cccs2)CC(c2cccs2)=C(C#N)C(=C(C#N)C#N)N1 (configuration not stated) ?
17.1 µM (inactive)

Can you look up the measured GI50 of Cc1c2c(OCC3CCCCO3)nn(C)c(=O)c2c(C)n1-c1ccccc1 (configuration not stated) for me?
18.6 µM (inactive)

Recorded GI50 for `Oc1ccc2ccccc2c1/N=N/c1ccc(/N=N/c2ccccc2)cc1` , please?
84.9 µM (inactive)

Tell me the measured GI50 of `CCN(CC)CCn1c(C(C)(C)C)nc2ccccc21` , please.
> 100 µM (inactive)

Returns the measured GI50 for the input molecule. Input: `CC(C)Oc1cc(O)c2c(c1)OCC=C2CCC(=O)O`
31.5 µM (inactive)

So what's the measured GI50 for this one? CCOC(=O)CCC(NC(=O)c1ccc(NCc2ccc3nc(OC)c(OC)nc3c2)c2ccccc12)C(=O)OCC (configuration not stated)
> 100 µM (inactive)

Item under review: CC(C)=CCc1c(O)ccc2ccc(=O)oc12 [OSTHENOL] . Reported GI50?
> 75.5 µM (inactive)

Would you mind telling me what GI50 value was observed for Cc1cccc2c1CC1(C2)Cc2c(C)cccc2C1=O (configuration not stated) ?
25.2 µM (inactive)

Fill in the blank: the reported GI50 of CCC(=O)N(c1ccccc1)C(C)CN1CCC(O)(c2cccc(C(F)(F)F)c2)CC1 (configuration not stated) is ____.
35.2 µM (inactive)

Given the entry `N#Cc1nnn(C2CCCCC2)c1O` , report its measured GI50.
> 100 µM (inactive)

For the molecule shown here, CC1(C)/C(=N\O)C2(OS(=O)(=O)C(F)(F)F)CCC1C2 (configuration not stated) , give the reported GI50.
> 100 µM (inactive)

Reported GI50, molecule COc1cc2c(cc1OC)C1(c3ccc(Cl)cc3)ON=C(c3ccccc3)N1CS2 (configuration not stated) : ____
> 100 µM (inactive)

Can you look up the measured GI50 of O=C1Nc2ccccc2NC1C1OC(c2ccccc2)=CC1=O (configuration not stated) for me?
> 100 µM (inactive)

Give the measured GI50 of `COc1ccccc1N1C(=O)CC(=O)N(C(=O)CCCCCCCCC(=O)N2C(=O)CC(=O)N(c3ccccc3OC)C2=S)C1=S` .
53.8 µM (inactive)

Entry under review: CN(C)CC1CCCC(CN(C)C)C1OC(=O)c1ccccc1 (configuration not stated) . Reported GI50?
> 100 µM (inactive)

Look at this molecule and give its reported GI50. `CC12C(=O)CC(CC1=O)C2(C)C`
> 100 µM (inactive)

Consider the molecule CC(C)CC(NC(=O)C(N)CCC(=O)OCc1ccccc1)C(=O)NC(COCc1ccccc1)C(=O)NC(Cc1ccccc1)C(=O)ON1C(=O)CCC1=O (configuration not stated) (H-E(OBn)LS(Bn)F-OSu; configuration not given here) and give its measured GI50.
32.1 µM (inactive)

What value of GI50 has been reported for the following molecule? `OC(Cc1ccc2ccccc2n1)(C(F)(F)F)C(F)(F)F`
> 10 µM (inactive)

Recorded GI50 of C/C(=N\NS(=O)(=O)c1ccc(C)cc1)C(CN(C)C)C(c1ccccc1)c1c(O)c2ccccc2oc1=O (configuration not stated) , please.
> 100 µM (inactive)

State the recorded GI50 for this entry: O=C(C1OC1c1ccc(O)cc1)C12CC3CC(CC(C3)C1)C2 (configuration not stated)
98.9 µM (inactive)

---

System: SF-295
assay.protocol: NCI tumour cell line growth inhibition, 48 h
Calls of active or inactive are those of the source. No stated cut-off is given here; in the data, active = GI50 up to about 1.1 µM and inactive = higher.
One label from this list, please: active, inactive

What classification did `[N-]=[N+]=Nc1ccccc1-c1ccccc1[N+](=O)[O-]` end up with in this test?
inactive

Check the results log: what was the call for `Cc1ccc(/C=c2\c(=O)[nH]c3nc4ccccc4c(=O)n23)cc1` ?
inactive

For `c1csc(-c2nn3c(C45CC6CC(CC(C6)C4)C5)nnc3s2)c1` , what call appears in the results of this test?
inactive

Identify the outcome logged in this assay for the compound shown: `CN(C)S(=O)(=O)c1nc(Cl)c2nc[nH]c2n1`
inactive

In this assay, the call recorded for CN(C(=O)C12C3C4C1C1C2C3C41C#N)C(C)(C)C (stereo unspecified) was what?
inactive

So what was the verdict on CC1(c2cccs2)CC(c2cccs2)=C(C#N)C(=C(C#N)C#N)N1 (stereo unspecified) in this test?
inactive

Hi team, can someone confirm the assay call for `CCCCn1cc(C(=O)O)c(=O)c2c3sccc3ccc21` ?
inactive

Query: recorded result category for C=C(C)CCC(=O)[C@](C)(O)[C@H]1[C@H](O)C[C@@]2(C)[C@@H]3CCc4c(cc(OC5OC(CO)C(O)C(O)C5O)c(O)c4C)C3(C)C(=O)C[C@]12C (stereo partly specified) in this test
inactive

Query: recorded result category for CCCC(=O)OC1CC(n2cc(F)c(=O)[nH]c2=O)OC1CO (stereo unspecified) in this test
active

Tell me the assay call for `O=C(c1ccccc1)c1c(C(F)(F)F)[n+]([O-])c2cc(F)c(F)cc2[n+]1[O-]` please.
active

Could you kindly confirm the outcome this assay logged for `COc1cc(S(=O)(=O)Nc2ccc(-c3csc(/N=C\c4ccccc4O)n3)cc2)ccc1Cl` ?
inactive

---

Tested on: SR
assay.protocol: NCI tumour cell line growth inhibition, 48 h
Calls of active or inactive are those of the source. Cut-off read from the data, not from the text of the source: active = GI50 up to about 1.1 µM and inactive = higher. Where a SMILES comes first, the peptide text is derived from it. The star is where a group is joined. OSu = O=C1CCC(=O)N1O*; OBn = c1ccc(CO*)cc1; Bn = c1ccc(C*)cc1
Please answer using one outcome listed in Y for active, N for inactive

Hi team, can someone confirm the assay call for CC(C)(C)C1=C(Br)C(F)(C(C)(C)C)OP1(=O)c1ccccc1 (stereo not given) ?
N

Lab log entry: CC(C)c1cccc(C(C)C)c1NC(=O)C(=O)C(C(=O)c1ccccc1-c1ccccc1)C1OC(=O)c2ccccc21 (stereo not given) — outcome as called in the assay?
N

Hi, do you know how `C[C@@H]1S[C@H](c2ccccc2F)N2Cc3ccccc3N=C12` came out in this test?
N

I'd appreciate the recorded outcome for O=C(O)CCC(NC(=O)c1ccc(CNc2nc3ccccc3nc2C(=O)O)cc1)C(=O)O (stereo not given) from this test.
N

Tell me the recorded outcome of this test for O=C1C=C/C(=N\c2ccc3c(c2)C(Br)c2ccccc2-3)O1 (stereo not given) .
N

For this compound, state the assay outcome: `O=c1oc2cc(O)ccc2c2[nH]c3cc(O)ccc3c12`
N

Call for entry `[N-]=[N+]=CC(=O)OC1Cc2ccccc2C1` :
N

Which outcome was entered for the compound `O=C(O)CSc1cc(-c2ccccc2)nc2ccccc12` in this test?
N

Field: outcome | Entry: `CCOc1nc(OCC)nc(-c2cccn2-c2ccccc2)n1`
N

So what was the verdict on `CC(C)Oc1cc(O)c2c(c1)OCC=C2CCC(=O)O` in this test?
N

Could you kindly confirm the outcome this assay logged for `CCN(CC)CCn1c(C(C)(C)C)nc2ccccc21` ?
N

What did the test return for `CCOC(=O)CNC1=NNS(=O)(=O)c2ccccc21` ?
N

Give the logged outcome of this assay for the following compound: COc1cc2cc(C(=O)N3CC(CCl)c4c3cc(N)c3ccccc43)[nH]c2c(OC)c1OC (stereo not given)
Y

So what was the verdict on CC(=O)Oc1c(C)c2c(O)c3c1C1=C(OCOC1=C(C)C3=O)/C(C)=C/C(C)(O)C(O)C(C)C(O)C1C(=O)OC(C(C)C1O)C(C)(O)/C=C\C=C(C)C(=O)N2 (stereo not given) in this test?
N

I'd appreciate the recorded outcome for `O=C(O)c1ccccc1/C=N\N(CCO)C1=NCCN1` from this test.
N

GET /call?item= CC(C)CC(NC(=O)C(N)CCC(=O)OCc1ccccc1)C(=O)NC(COCc1ccccc1)C(=O)NC(Cc1ccccc1)C(=O)ON1C(=O)CCC1=O (stereo not given) (H-E(OBn)LS(Bn)F-OSu; configuration not given here) returns the recorded outcome of this test.
N

Given `FC(F)(F)c1cccc2ns[s+]c12` , state the outcome it received in this test.
N

Status in this test for `O=C(C[n+]1ccccc1)NNC(=O)/C(=C/c1ccc2c(c1)OCO2)NC(=O)c1ccccc1` ?
N

Give the logged outcome of this assay for the following compound: CCOC(=O)C(NC(=O)c1cccc(Cl)c1)(Nc1cccc(C)c1)C(F)(F)F (stereo not given)
N

I would be grateful if you could indicate the recorded call for `Brc1ccc2[nH]cc(-c3nc(-c4c[nH]c5ccccc45)cs3)c2c1` .
N
